System: L. betulinus P2O
experimentDescription: Relative activities of L. betulinus P2O on pyranose substrates
Type: biochemical
particulars: 20 mM substrate; D-glucose = 100
observedProperty: relative activity of L. betulinus P2O on substrate

- compound: "OC1OC[C@@H](O)[C@H](O)[C@H]1O (stereo partly drawn) [D-xylose]"
  assayTarget: "L. betulinus P2O"
  recordedMeasurement: 43
- compound: "O=C(CO)[C@@H](O)[C@H](O)[C@@H](O)CO [L-sorbose]"
  assayTarget: "L. betulinus P2O"
  recordedMeasurement: 43
- compound: "OC[C@H]1OC(O)[C@H](O)[C@@H](O)[C@@H]1O (stereo partly drawn) [D-glucose]"
  assayTarget: "L. betulinus P2O"
  recordedMeasurement: 100
- compound: "O=C1O[C@H](CO)[C@@H](O)[C@H](O)[C@H]1O [delta-D-gluconolactone]"
  assayTarget: "L. betulinus P2O"
  recordedMeasurement: 26

###

assayTarget: C. versicolor P2O (Trametes versicolor, UniProt P79076)
Construct: A single band having a molecular weight of about 65,000 was observed when the enzyme was analyzed by SDS-PAGE; made in house; host or cells: C. versicolor itself (native producer; high-producer culture selected from NRRL 15152 / CMCC 0748)
experimentDescription: Relative activities of C. versicolor P2O on pyranose substrates
Format: biochemical
particulars: 1% (w/v) substrate; D-glucose = 100
observedProperty: relative activity of C. versicolor P2O on substrate

- compound: "OC[C@H]1OC(O)[C@H](O)[C@@H](O)[C@@H]1O (stereo partly shown)"
  recordedMeasurement: 100
- compound: "OC1OC[C@@H](O)[C@H](O)[C@H]1O (stereo partly shown)"
  recordedMeasurement: 41
- compound: "O=C1O[C@H](CO)[C@@H](O)[C@H](O)[C@H]1O"
  recordedMeasurement: 6
- compound: "O=C(CO)[C@@H](O)[C@H](O)[C@@H](O)CO"
  recordedMeasurement: 74
